test: Distribution of BS in brain tissue of ICR mice after intraperitoneal injection, ICP-MS; type: in vivo; settings: female, mouse, ip, intraperitoneal injection 90 mg/kg, 0.5 h after administration
EXPERIMENTAL READOUT: concentration at 0.5 h
Respond with the figure and its unit, in that order.

# input Assign concentration at 0.5 h to the following record: O=c1c2ccccc2[se]n1CCCCn1[se]c2ccccc2c1=O [BS, butaselen]
# output 439 ng/g

---

assay: Distribution of BS in brain tissue of ICR mice after intraperitoneal injection, ICP-MS; assay type: in vivo; conditions: female, mouse, ip, intraperitoneal injection 90 mg/kg, 3 h after administration
EXPERIMENTAL READOUT: concentration at 3 h (ng/g)
Numbers only, in ng/g.

# input Entry O=c1c2ccccc2[se]n1CCCCn1[se]c2ccccc2c1=O needs its concentration at 3 h filled in; supply it.
# output 419

---

assay: Distribution of BS in brain tissue of U87 nude mice by ICP-MS (selenium content); type: in vivo; details: Balb/c nude, mouse, BS 30 mg/kg, injection dosage form (intraperitoneal), after the experiment, calculated from selenium content
EXPERIMENTAL READOUT: concentration at 18 days
Provide a numeric answer, followed by its unit.

# input Answer with reported concentration at 18 days of O=c1c2ccccc2[se]n1CCCCn1[se]c2ccccc2c1=O
# output 121 ng/g

---

test: Solubility of butaselen in water; type: physicochemical
EXPERIMENTAL READOUT: solubility

# input Return solubility for the following compound: O=c1c2ccccc2[se]n1CCCCn1[se]c2ccccc2c1=O
# output ~0.15 µg/mL
